TARGET OR SYSTEM: 92 kDa gelatinase (MMP-9) (Homo sapiens, UniProt P14780)
Sequence (P14780 107-707 limits assumed): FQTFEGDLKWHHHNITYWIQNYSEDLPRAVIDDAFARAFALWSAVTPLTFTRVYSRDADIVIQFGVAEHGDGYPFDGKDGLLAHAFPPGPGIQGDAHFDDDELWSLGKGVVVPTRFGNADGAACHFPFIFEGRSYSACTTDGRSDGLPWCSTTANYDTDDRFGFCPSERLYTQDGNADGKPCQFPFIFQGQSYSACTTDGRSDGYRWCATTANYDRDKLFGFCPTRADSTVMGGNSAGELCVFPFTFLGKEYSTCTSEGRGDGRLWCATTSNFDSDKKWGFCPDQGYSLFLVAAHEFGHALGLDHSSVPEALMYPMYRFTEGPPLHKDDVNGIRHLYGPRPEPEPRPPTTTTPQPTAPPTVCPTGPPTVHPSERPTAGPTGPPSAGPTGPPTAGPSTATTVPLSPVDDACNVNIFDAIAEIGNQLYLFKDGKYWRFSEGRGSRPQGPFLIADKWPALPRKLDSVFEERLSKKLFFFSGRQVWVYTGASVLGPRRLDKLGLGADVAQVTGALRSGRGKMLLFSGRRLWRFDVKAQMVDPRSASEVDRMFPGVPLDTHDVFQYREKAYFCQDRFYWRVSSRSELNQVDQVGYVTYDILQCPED
ASSAY INFO: MMP-9 enzyme inhibition assay (coumarin-labeled peptide substrate)
Assay type: biochemical
MEASUREMENT PARAMETERS: @ 5 μM; read-out: percentage inhibition MMP9
Assignment: determine reported inhibition at 5 µM for the given compounds.
Answers are plain numbers, in %.

Example cases with answers are listed next.
{"columns": ["COMPOUND", "TARGET OR SYSTEM", "QUANTITY NAME", "UNIT STRING", "RECORDED MEASUREMENT"],
 "data": [
  ["O=CN(O)C(COc1ccccc1)CS(=O)(=O)N1CCc2ccc(Cl)cc2C1 (centres unmarked)", "92 kDa gelatinase (MMP-9) (Homo sapiens, UniProt P14780)", "inhibition at 5 µM", "%", 12],
  ["CC(C)c1ccc2c(c1)CCN(S(=O)(=O)CC(C1CC1)N(O)C=O)C2 (centres unmarked)", "92 kDa gelatinase (MMP-9) (Homo sapiens, UniProt P14780)", "inhibition at 5 µM", "%", 28],
  ["O=CN(O)C(CS(=O)(=O)N1Cc2ccc(F)cc2C1)C1CCCC1 (centres unmarked)", "92 kDa gelatinase (MMP-9) (Homo sapiens, UniProt P14780)", "inhibition at 5 µM", "%", 0],
  ["CC(C)(C)CC(CS(=O)(=O)N1CCc2cc(C(F)(F)F)ccc2C1)N(O)C=O (centres unmarked)", "92 kDa gelatinase (MMP-9) (Homo sapiens, UniProt P14780)", "inhibition at 5 µM", "%", 68],
  ["CC(C)c1ccc2c(c1)CCN(S(=O)(=O)C[C@H]([C@H]1CCCO1)N(O)C=O)C2", "92 kDa gelatinase (MMP-9) (Homo sapiens, UniProt P14780)", "inhibition at 5 µM", "%", 47],
  ["CC(C)(Cc1ccccc1)C(CS(=O)(=O)N1CCc2cc(C(F)(F)F)ccc2C1)N(O)C=O (centres unmarked)", "92 kDa gelatinase (MMP-9) (Homo sapiens, UniProt P14780)", "inhibition at 5 µM", "%", 3],
  ["O=CN(O)C(CS(=O)(=O)N1Cc2ccccc2C1)C1CC1 (centres unmarked)", "92 kDa gelatinase (MMP-9) (Homo sapiens, UniProt P14780)", "inhibition at 5 µM", "%", 28],
  ["O=CN(O)C(CS(=O)(=O)N1CCc2cc(C(F)(F)F)ccc2C1)[C@H]1CCCO1 (some centres unmarked)", "92 kDa gelatinase (MMP-9) (Homo sapiens, UniProt P14780)", "inhibition at 5 µM", "%", 40],
  ["CCC#CCC(C)(C)C(CS(=O)(=O)N1CCc2cc(C(F)(F)F)ccc2C1)N(O)C=O (centres unmarked)", "92 kDa gelatinase (MMP-9) (Homo sapiens, UniProt P14780)", "inhibition at 5 µM", "%", 3],
  ["O=CN(O)C1(CS(=O)(=O)N2CCc3ccc(Cl)cc3C2)CCCC1", "92 kDa gelatinase (MMP-9) (Homo sapiens, UniProt P14780)", "inhibition at 5 µM", "%", 1]
]}

# batch: return inhibition at 5 µM for each of the 3 compounds below
1. O=CN(O)C(CS(=O)(=O)N1CCc2ccc(-c3ccc(F)cc3)cc2C1)C1CC1 (centres unmarked)
2. CC(C)(C)OC(=O)N1CCC[C@@H]1[C@@H](CS(=O)(=O)N1CCc2cc(Cl)c(Cl)cc2C1)N(O)C=O (racemic)
3. CC(C)(C)CC(CS(=O)(=O)N1CCc2cc(Cl)c(Cl)cc2C1)N(O)C=O (centres unmarked)

Result:
1: 71; 2: 21; 3: 35

Reference source for all entries: patent US7879876B2
